# Assayed System: EsaR (Pantoea stewartii subsp. stewartii)
# Construct: expressed in transfected cells; host or cells: E. coli JLD271 (K12 ΔsdiA), arabinose-induced pJN105-esaR
# Sequence (P54293 whole entry): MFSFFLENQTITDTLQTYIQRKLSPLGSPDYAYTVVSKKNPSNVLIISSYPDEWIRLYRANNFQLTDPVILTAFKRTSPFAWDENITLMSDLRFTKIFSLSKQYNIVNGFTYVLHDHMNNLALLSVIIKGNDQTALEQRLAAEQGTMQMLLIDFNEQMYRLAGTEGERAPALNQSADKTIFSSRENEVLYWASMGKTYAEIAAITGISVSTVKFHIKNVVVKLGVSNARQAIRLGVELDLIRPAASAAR
# Assay Info: cell-based
# Experimental: EsaR transcriptional activation and repression were examined using E. coli and P. stewartii reporters (strains and plasmids listed in Table S1; see Methods section for assay details). […] Overnight cultures were diluted 1:10 in LB medium with appropriate antibiotics and grown at 37 °C (200 rpm) to an OD600 of 0.22–0.27 before induction with 4 mg mL^–1 arabinose. OD600 was measured by placing 200 μL of culture into a 96-well plate and reading optical density using the BioTek Synergy 2 plate reader. […]
pEC50: −log10 of the molar value.
Outcome label depends on pEC50 relative to 5: at/above gives Fulfilled, below gives Not fulfilled.

{"columns": ["Compound", "Assayed System", "Class Name"],
 "data": [
  ["O=C1OCC[C@@H]1NS(=O)(=O)c1ccc(Cl)c(Cl)c1Cl", "EsaR (Pantoea stewartii subsp. stewartii)", "Fulfilled"],
  ["CCCCCS(=O)(=O)N[C@H]1CCOC1=O", "EsaR (Pantoea stewartii subsp. stewartii)", "Not fulfilled"],
  ["O=C(Cc1cccc([N+](=O)[O-])c1)N[C@H]1CCOC1=O", "EsaR (Pantoea stewartii subsp. stewartii)", "Not fulfilled"],
  ["CCCCCCCC(=O)CC(=O)N[C@H]1CCOC1=O [ODHL, reference compound]", "EsaR (Pantoea stewartii subsp. stewartii)", "Not fulfilled"],
  ["CC(=O)CC(=O)N[C@H]1CCOC1=O [OBHL, reference compound]", "EsaR (Pantoea stewartii subsp. stewartii)", "Not fulfilled"]
]}

Task item: Kindly determine if pEC50 recorded for O=C(Cc1cccc(Cl)c1)N[C@H]1CCOC1=O is above or exactly 5.
Reply: Not fulfilled

Task item: Kindly determine if pEC50 recorded for O=C1OCC[C@@H]1NS(=O)(=O)c1cccc(Cl)c1 is above or exactly 5.
Reply: Fulfilled

Task item: Kindly determine if pEC50 recorded for CCCS(=O)(=O)N[C@H]1CCOC1=O is above or exactly 5.
Reply: Not fulfilled

Task item: Kindly determine if pEC50 recorded for O=C1OCC[C@@H]1NS(=O)(=O)c1ccc(Br)cc1 is above or exactly 5.
Reply: Not fulfilled

Task item: Kindly determine if pEC50 recorded for O=C1OCC[C@@H]1NS(=O)(=O)c1cc(Cl)cc(Cl)c1 is above or exactly 5.
Reply: Not fulfilled
